Please go through the items and note down their Kd.
biological target: T1, Rat Serum Albumin (rat, UniProt P02770 25-608); test: BIAcore SPR
T1 construct: mature; purified protein on CM5 chips for BIAcore; also called RSA; rat SA
T1 sequence (P02770 25-608): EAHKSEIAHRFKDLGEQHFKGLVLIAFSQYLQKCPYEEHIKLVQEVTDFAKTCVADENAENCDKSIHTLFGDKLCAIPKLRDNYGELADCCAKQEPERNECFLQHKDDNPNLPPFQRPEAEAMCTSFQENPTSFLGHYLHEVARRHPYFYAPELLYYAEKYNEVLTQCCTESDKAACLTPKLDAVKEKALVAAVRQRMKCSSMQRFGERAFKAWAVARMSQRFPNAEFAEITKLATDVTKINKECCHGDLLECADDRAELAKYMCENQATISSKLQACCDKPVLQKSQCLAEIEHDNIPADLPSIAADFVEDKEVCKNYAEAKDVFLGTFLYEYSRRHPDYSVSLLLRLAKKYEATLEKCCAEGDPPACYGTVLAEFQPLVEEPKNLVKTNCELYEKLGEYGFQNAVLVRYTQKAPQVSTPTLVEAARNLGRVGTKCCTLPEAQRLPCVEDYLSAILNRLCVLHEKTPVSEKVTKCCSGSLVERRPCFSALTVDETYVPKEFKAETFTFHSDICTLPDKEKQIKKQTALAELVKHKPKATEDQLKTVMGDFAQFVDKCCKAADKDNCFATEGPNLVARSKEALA
Answer with a number only, understood to be in nM.

Per the records, this binder ( DOM7h-11-86 (other, Vk dAb; also called DOM7h-11-65 W108R/N106I) VL: DIQMTQSPSSLSASVGDRVTITCRASRPIGTMLSWYQQKPGKAPKLLILAFSRLQSGVPSRFSGSGSGTDFTLTISSLQPEDVATYYCAQAGTHPTTFGQGTKVEIKR ) has Kd equal to 37.8

Per the records, this binder ( DOM7h-11-87 (other, Vk dAb; also called DOM7h-11-67 W108R/N106I) VL: DIQMTQSPSSLSASVGDRVTITCRASRPIGTMLSWYQQKPGKAPKLLILAFSRLQSGVPSRFSGSGSGTDFTLTISSLQPEDFATYYCAQAGTHHTTFGQGTKVEIKR ) has Kd equal to 17.6

Per the records, this binder ( DOM7h-11-88 (other, Vk dAb; also called DOM7h-11-67 W108R) VL: DIQMTQSPSSLSASVGDRVTITCRASRPIGTMLSWYQQKPGKAPKLLILAFSRLQSGVPSRFSGSGSGTDFTLTISSLQPEDFATYYCAQAGTHHTTFGQGTKVENKR ) has Kd equal to 16.9

Per the records, this binder ( DOM7h-11-90 (other, Vk dAb; also called DOM7h-11-57 W108R/N106I) VL: DIQMTQSPSSLSASVGDRVTITCRASRPIGTMLSWYQQKPGKAPKLLILAFSRLQSGVPSRFSGSGSGTDFTLTISNLQPEDFATYYCAQAGTHPTTFGQGTKVEIKR ) has Kd equal to 53.6
